For each entry below, report its Increase value.
Organism: Cavia porcellus
METHOD_SUMMARY: Inotropic effect in electrically driven left atrium from reserpine-treated guinea pig at the concentration of 10 e-3 M
Format: functional, Cardiac atrium
Expressed in %, but write only the number.

Problem: // Increase lookup, key: Nc1cc(-c2ccncc2)c[nH]c1=O [INAMRINONE]
Solution: 27

Problem: // Increase lookup, key: Cc1[nH]c(=O)c(C#N)cc1-c1ccncc1 [MILRINONE]
Solution: 41.96

Problem: // Increase lookup, key: `CC(=O)c1cc(C#N)c(O)nc1C`
Solution: 58.73

Problem: // Increase lookup, key: CC1CC(=O)c2ccc(O)nc2C1 (centres undefined)
Solution: 48.86

----------
Species on record: Cavia porcellus
METHOD_SUMMARY: Effect on contractile force of spontaneously beating atria from reserpine treated guinea pigs at the concentration of 5x 10 e-4 M (negative ionotropic effect)
Type: functional
For each entry below, report its Increase value.
Expressed in %, but write only the number.

Problem: // Increase lookup, key: `O=C(O)c1cc(C(=O)c2ccccc2)c(-c2ccccc2)nc1O`
Solution: -61.56

Problem: // Increase lookup, key: `N#Cc1cc(C(=O)c2ccccc2)c(-c2ccccc2)nc1O`
Solution: -32.19

Problem: // Increase lookup, key: `CC(C)C(=O)c1ccc(O)nc1C(C)C`
Solution: -9.42

Problem: // Increase lookup, key: O=C(O)c1cc2c(nc1O)CC(c1ccccc1)CC2=O (centres undefined)
Solution: -7.59

Problem: // Increase lookup, key: `O=C(c1ccccc1)c1ccc(O)nc1-c1ccccc1`
Solution: -38.32

Problem: // Increase lookup, key: `CC1(C)CC(=O)c2ccc(O)nc2C1`
Solution: -5.5

Problem: // Increase lookup, key: `CC(C)C(=O)c1cc(C#N)c(O)nc1C(C)C`
Solution: -34.43

Problem: // Increase lookup, key: `CC(C)(C)C(=O)c1cc(C#N)c(O)nc1C(C)(C)C`
Solution: -66.56

Problem: // Increase lookup, key: `CC(C)C(=O)c1cc(C(=O)O)c(O)nc1C(C)C`
Solution: -49.63

----------
METHOD_SUMMARY: Logarithm of the sum of contributions of each atom to the total lipophilicity of the molecule
Format: physicochemical
CONDITIONS: octanol/water
logP strictly under 3 means Satisfied; at 3 or over means Not satisfied.

Problem: Take the compound CC1CC(=O)c2ccc(O)nc2C1 (stereo not given) and say whether its logP is less than 3.
Solution: Satisfied

Problem: Take the compound `O=C(c1ccccc1)c1ccc(O)nc1-c1ccccc1` and say whether its logP is less than 3.
Solution: Not satisfied

Problem: Take the compound `CC(=O)c1cc(C#N)c(O)nc1C` and say whether its logP is less than 3.
Solution: Satisfied

Problem: Take the compound Nc1cc(-c2ccncc2)c[nH]c1=O [INAMRINONE] and say whether its logP is less than 3.
Solution: Satisfied

Problem: Take the compound Cc1[nH]c(=O)c(C#N)cc1-c1ccncc1 [MILRINONE] and say whether its logP is less than 3.
Solution: Satisfied

----------
For each entry below, report its Increase value.
Organism: Cavia porcellus
METHOD_SUMMARY: Inotropic effect in electrically driven left atrium from reserpine-treated guinea pig at the concentration of 5 x 10 e-5 M
Type: functional, Cardiac atrium
Expressed in %, but write only the number.

Problem: // Increase lookup, key: `CC(=O)c1cc(C#N)c(O)nc1C`
Solution: 25.17

Problem: // Increase lookup, key: Cc1[nH]c(=O)c(C#N)cc1-c1ccncc1 [MILRINONE]
Solution: 22.83

Problem: // Increase lookup, key: CC1CC(=O)c2ccc(O)nc2C1 (centres undefined)
Solution: 19.17

Problem: // Increase lookup, key: Nc1cc(-c2ccncc2)c[nH]c1=O [INAMRINONE]
Solution: 6.49

Data origin, for the record: ChEMBL document CHEMBL1126775
